Target: Nuclear receptor subfamily 1 group I member 2 (Homo sapiens) (UniProt O75469)
Sequence (O75469 whole entry, looked up): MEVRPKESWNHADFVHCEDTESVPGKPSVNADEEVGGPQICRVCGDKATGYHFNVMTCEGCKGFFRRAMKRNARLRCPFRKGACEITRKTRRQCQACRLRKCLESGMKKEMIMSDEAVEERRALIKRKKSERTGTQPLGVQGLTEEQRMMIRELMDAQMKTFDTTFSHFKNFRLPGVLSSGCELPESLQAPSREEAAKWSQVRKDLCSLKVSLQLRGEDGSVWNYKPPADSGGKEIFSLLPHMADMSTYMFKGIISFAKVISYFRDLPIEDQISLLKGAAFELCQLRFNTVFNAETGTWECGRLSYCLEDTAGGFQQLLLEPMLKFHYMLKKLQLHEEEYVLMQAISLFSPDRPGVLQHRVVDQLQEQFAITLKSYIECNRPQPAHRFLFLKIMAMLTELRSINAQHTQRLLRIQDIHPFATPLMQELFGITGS
Assay: Human pregnane X receptor (PXR) small molecule agonists, qHTS assay (AID 1346982); note: nearly all actives have a fitted effect of over 35% in size
Conditions: PXR-Luc HepG2, CYP3A4 luciferase reporter, 24 h; series mostly up to 92.4 µM
Results filed as inconclusive are left out. Activity calls are given as the source filed them. Calls come from the whole dose curve; as a rule, active = well fitted activation curve with a large enough effect in the repeat runs; inconclusive = weak or mixed curves; inactive = no such curve, though single readings can be large or run the other way.
Mark one answer only. Choices: active, inactive

Solved cases (8 shown):
INSERT INTO assay_data (chem_smiles, qualitative_label) VALUES
  ('N#Cc1cc([N+](=O)[O-])ccc1N', 'inactive'),
  ('COc1ccc(C(c2ccc(OC)cc2)C(Cl)(Cl)Cl)cc1', 'active'),
  ('CC(c1ccccc1)(c1ccc(O)cc1)c1ccc(O)cc1', 'active'),
  ('Cc1cc(C(C)(C)c2ccc(O)c(C)c2)ccc1O', 'active'),
  ('COc1cc(OC)c(OC)cc1C=O', 'inactive'),
  ('CCN(CC)C(=O)Cl', 'inactive'),
  ('Cc1ccc(N(SC(F)(Cl)Cl)S(=O)(=O)N(C)C)cc1', 'inactive'),
  ('O=S(=O)(C(Cl)(Cl)Cl)C(Cl)(Cl)Cl', 'inactive');

Below: the item to evaluate.
Field: outcome | Entry: `Cc1cc(C)c(C(=O)P(=O)(c2ccccc2)c2ccccc2)c(C)c1`
active
